- System: obesity and metabolic diseases-related genes in visceral fat tissue
- TEST PROTOCOL: RT-PCR of obesity and metabolic diseases-related genes, visceral fat tissue
- Type: in vivo, mouse
- CONDITION NOTES: odor component-supplemented group to the HFD control group
METRIC NAME: UCP1 gene expression, increase (change rate) (% increase ^)
API: value field is a number in % increase ^; no unit string.

| MOLECULE | ASSAY TARGET | UNIT STRING | VALUE REPORTED |
| --- | --- | --- | --- |
| O=C(/C=C/C=C/c1ccc2c(c1)OCO2)N1CCCCC1 | obesity and metabolic diseases-related genes in visceral fat tissue | % increase ^ | 905 |
| C/C=C1/[C@H](O[C@@H]2O[C@H](CO)[C@@H](O)[C@H](O)[C@H]2O)OC=C(C(=O)OC)[C@H]1CC(=O)OCCc1ccc(O)c(O)c1 | obesity and metabolic diseases-related genes in visceral fat tissue | % increase ^ | 450 |
| CC(=O)O[C@]1(C)CC[C@@]23C[C@@H]1C(C)(C)[C@@H]2CC[C@H]3C [cedryl acetate] | obesity and metabolic diseases-related genes in visceral fat tissue | % increase ^ | 899 |

Switching to the query record.
Recorded UCP1 gene expression, increase (change rate) of `OCc1c[nH]c2ccccc12` , please. 210

These entries and their values trace back to patent US10167507B2.
